System Name: human GPR52 (Homo sapiens, UniProt Q9Y2T5)
Sequence (Q9Y2T5 whole entry): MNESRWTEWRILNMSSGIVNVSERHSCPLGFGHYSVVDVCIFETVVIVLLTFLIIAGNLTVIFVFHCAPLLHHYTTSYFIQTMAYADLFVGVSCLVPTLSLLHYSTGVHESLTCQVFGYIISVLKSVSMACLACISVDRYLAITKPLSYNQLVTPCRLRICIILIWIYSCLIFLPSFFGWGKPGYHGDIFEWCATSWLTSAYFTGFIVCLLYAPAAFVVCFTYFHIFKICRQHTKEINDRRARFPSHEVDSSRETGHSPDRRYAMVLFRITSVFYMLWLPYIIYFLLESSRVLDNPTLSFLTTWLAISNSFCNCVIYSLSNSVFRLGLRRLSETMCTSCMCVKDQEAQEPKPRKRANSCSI
Assay Metric: Emax (%)

• O=C1NCCc2c1cnn2-c1ccnc(C(O)c2cc(F)cc(C(F)(F)F)c2)c1 (single isomer, unassigned) [Example 36 Isomer 1] = 72
• CC1Cc2c(cnn2-c2ccnc(Cc3cc(F)cc(C(F)(F)F)c3)c2)C(=O)N1 (single isomer, unassigned) [Example 40 Isomer 2] = 83
• Cc1nn(-c2cc(C(O)c3cc(F)cc(C(F)(F)F)c3)ccn2)c2c1C(=O)NCC2 (single isomer, unassigned) [118 Isomer 2] = 101
• Cc1nn(-c2ccnc(C(O)c3cc(F)cc(C(F)(F)F)c3)c2)c2c1C(=O)NCC2 (single isomer, unassigned) [117 Isomer 2] = 103
• O=C1NCCc2c1cnn2-c1ccnc(C(O)c2cc(F)cc(C(F)(F)F)c2)c1 (single isomer, unassigned) [Example 36 Isomer 2] = 94

====

System Name: human GPR52 (Homo sapiens)
Procedure Summary: GPR52 Agonist Functional cAMP Assay
Reported Conditions: pEC50 average, HEKf cells infected with human GPR52 BacMam virus; cAMP HTRF; 30 min at 37° C.
pEC50: −log10 of the molar value.
Assay Metric: pEC50

• Cc1cc(F)cc(Cc2cc(-n3ncc4c3CCNC4=O)ccn2)c1 = 7.10
• O=C1NCCc2c1cnn2-c1ccnc(Cc2cccc(C(F)(F)F)c2)c1 = 6.70
• Cc1nn(-c2ccnc(Cc3cc(F)cc(Cl)c3)c2)c2c1C(=O)NCC2 = 7.90
• O=C1NCCc2c1cnn2-c1ccnc(Oc2cc(F)cc(C(F)(F)F)c2)c1 = 5.80
• COCCN1CCc2c(cnn2-c2ccnc(Cc3cc(F)cc(C(F)(F)F)c3)c2)C1=O = 7.00
• COc1cc(Cc2cc(-n3ncc4c3CCNC4=O)ccn2)cc(C(F)(F)F)c1 = 6.10
• N#Cc1cc(F)cc(Cc2cc(-n3ncc4c3CCNC4=O)ccn2)c1 = 6.10
• Cc1cc(Cc2cc(-n3ncc4c3CCNC4=O)ccn2)cc(C(F)(F)F)c1 = 7.00
• O=C1NCCc2c1c(CO)nn2-c1cc(Cc2cc(F)cc(C(F)(F)F)c2)ccn1 = 7.80
• Cc1nn(-c2ccnc(C(O)c3cc(F)cc(C(F)(F)F)c3)c2)c2c1C(=O)NCC2 (single isomer, unassigned) [117 Isomer 1] = 6.60
• O=C1NCCc2c1cnn2-c1ccnc(Cc2cc3ccccc3s2)c1 = 6.90
• N#Cc1cc(Cc2cc(-n3ncc4c3CCNC4=O)ccn2)cc(C(F)(F)F)c1 = 5.50
• O=C1NCCc2c1c(CO)nn2-c1ccnc(Cc2cc(F)cc(C(F)(F)F)c2)c1 = 7.40
• Cc1nn(-c2ccnc(Cc3cc(F)c(Cl)c(C(F)(F)F)c3)c2)c2c1C(=O)NCC2 = 8.20
• O=C1NCCCc2nn(-c3cc(Cc4cccc(C(F)(F)F)c4)ccn3)nc21 = 6.20
• Cc1nn(-c2ccnc(Cc3cc(Cl)c(F)c(C(F)(F)F)c3)c2)c2c1C(=O)NCC2 = 8.30
• Cc1nn(-c2cc(C(O)c3cc(F)cc(C(F)(F)F)c3)ccn2)c2c1C(=O)NCC2 (single isomer, unassigned) [118 Isomer 1] = 6.90

====

Catalogue of pEC50 readings, one per entry.
System Name: human GPR52 (Homo sapiens)
Procedure Summary: GPR52 Agonist Functional cAMP Assay;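 note: HEKf cells transduced with GPR52 BacMam for 24 h, 2000 per well, exposed to compounds 30 min at 37° C with 0.5 mM IBMX, cAMP read by HTRF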
Reported Conditions: pEC50 average, HEKf cells infected with human GPR52 BacMam virus; cAMP HTRF; 30 min at 37° C.
pEC50: −log10 of the molar value.
Assay Metric: pEC50

* Cc1cc(Cc2ccnc(-n3nc(C)c4c3CCNC4=O)c2)cnc1F | 7.60
* O=C1NCCc2c1cnn2-c1ccnc(C(O)c2cc(F)cc(C(F)(F)F)c2)c1 (single isomer, unassigned) [Example 36 Isomer 1] | 5.80
* O=C1NCCc2c1cnn2-c1ccnc(Cc2cc(F)c(C(F)(F)F)c(F)c2)c1 | 6.50
* Cc1nn(-c2ccnc(Cc3cc(F)c(Cl)c(F)c3)c2)c2c1C(=O)NCC2 | 7.70
* O=C1NCCc2c1cnn2-c1ccnc(C(F)(F)c2cc(F)cc(C(F)(F)F)c2)c1 | 6.20
* Cc1nn(-c2ccnc(Cc3ccc(F)c(Cl)c3)c2)c2c1C(=O)NCC2 | 8.00
* CC1CNC(=O)c2cnn(-c3ccnc(Cc4cc(F)cc(C(F)(F)F)c4)c3)c21 (centres unmarked) | 7.40
* O=C1NCCc2c1cnn2-c1ccnc(C(F)c2cc(F)cc(C(F)(F)F)c2)c1 (centres unmarked) | 6.90
